# Tested on: 521955-158-R2-J5-PDC complex spheroid growth, % test/control;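 further: spheroids exposed to agents for 7 days before readout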
# assay info: Anticancer human tumor 521955-158-R2-J5-PDC patient-derived pancreatic carcinoma cell line growth inhibition [Asc]
# condition set: curve of first compound; second compound 1 µM
A collection of molecules and their measured pIC50
Value format note: pIC50 is -log10 of concentration (mol/L); just state the number.

Task: Report pIC50 for Cc1nc(N2CCC3(CC2)COC(C)C3N)c(CO)nc1Sc1ccnc(N)c1Cl (configuration not stated) + Cc1c(S(C)(=O)=O)c(-c2cc(F)cc(N3CCN(c4ccc(NS(=O)(=O)c5ccc(NC(CCN6CCC(C(=O)OCCCP(=O)(O)O)CC6)CSc6ccccc6)c(S(=O)(=O)C(F)(F)F)c5)cc4)CC3)c2)c(-c2ccc(Cl)cc2)n1C(C)C please.
Output: 6.85

***
Task: Report pIC50 for NC(=O)C(=Cn1cnc(-c2cc(C(F)(F)F)cc(C(F)(F)F)c2)n1)c1cncnc1 + Cc1c(S(C)(=O)=O)c(-c2cc(F)cc(N3CCN(c4ccc(NS(=O)(=O)c5ccc(NC(CCN6CCC(C(=O)OCCCP(=O)(O)O)CC6)CSc6ccccc6)c(S(=O)(=O)C(F)(F)F)c5)cc4)CC3)c2)c(-c2ccc(Cl)cc2)n1C(C)C please.
Output: 8.87

Task: Same lookup for O=C(c1ccc(F)c(F)c1Nc1ccc(I)cc1F)N1CC(O)([C@@H]2CCCCN2)C1 + Cc1c(S(C)(=O)=O)c(-c2cc(F)cc(N3CCN(c4ccc(NS(=O)(=O)c5ccc(NC(CCN6CCC(C(=O)OCCCP(=O)(O)O)CC6)CSc6ccccc6)c(S(=O)(=O)C(F)(F)F)c5)cc4)CC3)c2)c(-c2ccc(Cl)cc2)n1C(C)C , please.
Output: 7.49

Task: Same lookup for C=C(F)C(=O)N1CCN(c2nc(OCC3CCCN3C)nc3c2CCN(c2cccc4cccc(Cl)c24)C3)CC1CC#N (configuration not stated) + CNC(C)C(=O)NC1CN(S(=O)(=O)c2cccc(S(=O)(=O)N3CCC4CCC(C(=O)NC(c5ccccc5)c5ccccc5)N4C(=O)C(NC(=O)C(C)NC)C3)c2)CCC2CCC(C(=O)NC(c3ccccc3)c3ccccc3)N2C1=O , please.
Output: 5.26

Task: Same lookup for C=C(F)C(=O)N1CCN(c2nc(OCC3CCCN3C)nc3c2CCN(c2cccc4cccc(Cl)c24)C3)CC1CC#N (configuration not stated) + Cc1c(S(C)(=O)=O)c(-c2cc(F)cc(N3CCN(c4ccc(NS(=O)(=O)c5ccc(NC(CCN6CCC(C(=O)OCCCP(=O)(O)O)CC6)CSc6ccccc6)c(S(=O)(=O)C(F)(F)F)c5)cc4)CC3)c2)c(-c2ccc(Cl)cc2)n1C(C)C , please.
Output: 5.28

Task: Same lookup for NC(=O)C(=Cn1cnc(-c2cc(C(F)(F)F)cc(C(F)(F)F)c2)n1)c1cncnc1 + CNC(C)C(=O)NC1CN(S(=O)(=O)c2cccc(S(=O)(=O)N3CCC4CCC(C(=O)NC(c5ccccc5)c5ccccc5)N4C(=O)C(NC(=O)C(C)NC)C3)c2)CCC2CCC(C(=O)NC(c3ccccc3)c3ccccc3)N2C1=O , please.
Output: 7.32

Task: Same lookup for O=C(c1cc(Cc2n[nH]c(=O)c3ccccc23)ccc1F)N1CCN(C(=O)C2CC2)CC1 + Cc1c(S(C)(=O)=O)c(-c2cc(F)cc(N3CCN(c4ccc(NS(=O)(=O)c5ccc(NC(CCN6CCC(C(=O)OCCCP(=O)(O)O)CC6)CSc6ccccc6)c(S(=O)(=O)C(F)(F)F)c5)cc4)CC3)c2)c(-c2ccc(Cl)cc2)n1C(C)C , please.
Output: 6.08
